Measured Positive Cytotoxic Effect (cell lines with percent growth <0 / total) by item
# Test system: NCI-60 cancer cell line panel
# Protocol Notes: NCI-60 screening (SRB), full panel
# Assay type: cell-based, human
# Experimental Context: 1 dose 10 µM

Reference set (5 entries):
{"Compound Smiles": "CCN1CCN(C(=O)[C@]23CCC(C)(C)C[C@H]2C2=CC[C@@H]4[C@@]5(C)C/C(=C/c6ccccn6)C(=O)C(C)(C)[C@@H]5CC[C@@]4(C)[C@]2(C)CC3)CC1", "Assay Value": "0/59"}
{"Compound Smiles": "CCN1CCN(C(=O)[C@]23CC[C@@H](C)[C@H](C)[C@H]2C2=CC[C@@H]4[C@@]5(C)CCC(=O)C(C)(C)[C@@H]5CC[C@@]4(C)[C@]2(C)CC3)CC1", "Assay Value": "60/60"}
{"Compound Smiles": "CCN1CCN(C(=O)[C@]23CCC(C)(C)C[C@H]2C2=CC[C@@H]4[C@@]5(C)CCC(=O)C(C)(C)[C@@H]5CC[C@@]4(C)[C@]2(C)CC3)CC1", "Assay Value": "7/59"}
{"Compound Smiles": "CCN1CCN(C(=O)[C@]23CC[C@@H](C)[C@H](C)[C@H]2C2=CC[C@@H]4[C@@]5(C)C/C(=C/c6cccnc6)C(=O)C(C)(C)[C@@H]5CC[C@@]4(C)[C@]2(C)CC3)CC1", "Assay Value": "5/59"}
{"Compound Smiles": "CCN1CCN(C(=O)[C@]23CCC(C)(C)C[C@H]2C2=CC[C@@H]4[C@@]5(C)C/C(=C/c6cccnc6)C(=O)C(C)(C)[C@@H]5CC[C@@]4(C)[C@]2(C)CC3)CC1", "Assay Value": "4/60"}

Turning to the following molecule.
# input Specify reported Positive Cytotoxic Effect (cell lines with percent growth <0 / total) for the molecule shown: CCN1CCN(C(=O)[C@]23CC[C@@H](C)[C@H](C)[C@H]2C2=CC[C@@H]4[C@@]5(C)C/C(=C/c6ccccn6)C(=O)C(C)(C)[C@@H]5CC[C@@]4(C)[C@]2(C)CC3)CC1
# output 0/59
